# Test system: K562 cells
# Protocol notes: cell viability (XTT) of imatinib-sensitive K562 cells
# Assay type: cell-based, human
# Measurement conditions: K562; 5, 10, 25 and 50 μM; compounds effective at concentrations as low as 5 μM
# Description: The K562 leukemic cell line is obtained from the pleural effusion of a patient with CML. This line is a good model for studying this disease. […] The K562 and ImaR cells are cultivated at 37° C. under 5% CO2 in an RPMI 1640 medium containing 5% fetal bovine serum and supplemented with sodium pyruvate and antibiotics (penicillin-streptomycin). […] After the addition of XTT reagent, the absorbance is measured at 490 nm. After adding XTT reagent, the absorbance is measured at 490 nm.
Reported endpoint: efficacy in dose-response experiment (number of viable cells)

Prompt: So what's the measured efficacy in dose-response experiment (number of viable cells) for this one? CCOC(=O)c1nnn([C@@H]2O[C@H](COC(C)=O)[C@@H](OC(C)=O)[C@H]2OC(C)=O)c1-c1cccs1 [Compound 82]
Completion: particularly effective

Prompt: So what's the measured efficacy in dose-response experiment (number of viable cells) for this one? CCOC(=O)c1nnn(C2OC(COC(C)=O)C(OC(C)=O)C(OC(C)=O)C2OC(C)=O)c1I (stereo not drawn) [Compound 191]
Completion: particularly effective

Prompt: So what's the measured efficacy in dose-response experiment (number of viable cells) for this one? CCOC(=O)C#Cc1c(C(=O)OCC)nnn1[C@@H]1O[C@H](COC(C)=O)[C@@H](OC(C)=O)[C@H]1OC(C)=O [Compound 49]
Completion: particularly effective

====

# System: K562 cells
# Protocol notes: cell viability (XTT) of imatinib-sensitive K562 cells
# Format: cell-based, human
# Measurement conditions: K562; 5, 10, 25 and 50 μM; compounds effective at concentrations as low as 5 μM
Reported endpoint: efficacy in dose-response experiment (number of viable cells)

Prompt: So what's the measured efficacy in dose-response experiment (number of viable cells) for this one? `CCOC(=O)c1nnn([C@@H]2O[C@H](COC(C)=O)[C@@H](OC(C)=O)[C@H]2OC(C)=O)c1-c1ccccc1`
Completion: particularly effective

Prompt: So what's the measured efficacy in dose-response experiment (number of viable cells) for this one? `CCOC(=O)C#Cc1c(C(=O)OCC)nnn1Cc1ccc(C)cc1`
Completion: particularly effective

Prompt: So what's the measured efficacy in dose-response experiment (number of viable cells) for this one? `CCOC(=O)c1nnn([C@@H]2O[C@H](COC(C)=O)[C@@H](OC(C)=O)[C@H]2OC(C)=O)c1Cl`
Completion: particularly effective
